Recorded values, source the supplement of paper PMC10567573.

B1: ACSBG2 (parent)
chain: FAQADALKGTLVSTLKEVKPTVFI

variants of: B1; assay: protein stability index of a GFP-peptide fusion (GPS, HEK-293T) (PSI 1-6); higher = more stable; conditions: c terminus: a fixed tail appended;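 also: lentivirally expressed fusions sorted by FACS into six bins by GFP to DsRed ratio, PSI derived from sequencing read proportions per bin multiplied by bin number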
Could you label it true if measured protein stability index is 2 or higher, and false otherwise?

- polymer.sequence: "FAQADILKGTLVSTLKEVKPTVFI [A6I]"
  class: "false"
- polymer.sequence: "FAQADALNGTLVSTLKEVKPTVFI [K8N]"
  class: "false"
- polymer.sequence: "FAQADFLKGTLVSTLKEVKPTVFI [A6F]"
  class: "true"
- polymer.sequence: "FAQADALKGTLVSTLKERKPTVFI [V18R]"
  class: "false"
- polymer.sequence: "FAQADAAKGTLVSTLKEVKPTVFI [L7A]"
  class: "true"
- polymer.sequence: "FAQADKLKGTLVSTLKEVKPTVFI [A6K]"
  class: "true"
- polymer.sequence: "WAQADALKGTLVSTLKEVKPTVFI [F1W]"
  class: "false"
- polymer.sequence: "FAQYDALKGTLVSTLKEVKPTVFI [A4Y]"
  class: "false"
- polymer.sequence: "FALADALKGTLVSTLKEVKPTVFI [Q3L]"
  class: "true"
- polymer.sequence: "FAWADALKGTLVSTLKEVKPTVFI [Q3W]"
  class: "true"
- polymer.sequence: "FAQADALKGTLVSTLKEVKPTVII [F23I]"
  class: "false"
- polymer.sequence: "FAQADALKGTLVSTLKQVKPTVFI [E17Q]"
  class: "false"
- polymer.sequence: "FAQGDALKGTLVSTLKEVKPTVFI [A4G]"
  class: "true"
- polymer.sequence: "FAQIDALKGTLVSTLKEVKPTVFI [A4I]"
  class: "false"
- polymer.sequence: "FAQADALKGTLVSTLKEVKPMVFI [T21M]"
  class: "false"
- polymer.sequence: "FAQADALKGCLVSTLKEVKPTVFI [T10C]"
  class: "false"
- polymer.sequence: "FAQADALKGYLVSTLKEVKPTVFI [T10Y]"
  class: "true"
- polymer.sequence: "FAQADALKGTLVSTLKEVKPGVFI [T21G]"
  class: "true"
- polymer.sequence: "FAQADAMKGTLVSTLKEVKPTVFI [L7M]"
  class: "true"
- polymer.sequence: "PAQADALKGTLVSTLKEVKPTVFI [F1P]"
  class: "true"
- polymer.sequence: "FAQADALKGTLVSTLKEVKLTVFI [P20L]"
  class: "true"
- polymer.sequence: "FAQADALKGTLTSTLKEVKPTVFI [V12T]"
  class: "false"
- polymer.sequence: "FAFADALKGTLVSTLKEVKPTVFI [Q3F]"
  class: "true"
- polymer.sequence: "FAQADALCGTLVSTLKEVKPTVFI [K8C]"
  class: "false"
- polymer.sequence: "FAQADALKGTLVSTLKEVKPTCFI [V22C]"
  class: "true"
- polymer.sequence: "FAQADALKGTLVSTLKEVKPTIFI [V22I]"
  class: "true"
- polymer.sequence: "FAQADALKGTLVSTLKEVKPTHFI [V22H]"
  class: "false"
- polymer.sequence: "FAQADALKGTLVSTHKEVKPTVFI [L15H]"
  class: "false"
- polymer.sequence: "FAQADAGKGTLVSTLKEVKPTVFI [L7G]"
  class: "false"
- polymer.sequence: "FAQADALKGTLVSTLKEVKPTVWI [F23W]"
  class: "true"
- polymer.sequence: "FAQADALKGTLVSTLKEVKVTVFI [P20V]"
  class: "false"
- polymer.sequence: "FAQADALKGTLVSTLKENKPTVFI [V18N]"
  class: "true"
- polymer.sequence: "FAQADALKGMLVSTLKEVKPTVFI [T10M]"
  class: "true"
- polymer.sequence: "FAQADALKGTLVSTLKEVKPTVFQ [I24Q]"
  class: "true"
- polymer.sequence: "FAQADALKGTLVSSLKEVKPTVFI [T14S]"
  class: "false"
- polymer.sequence: "FAQADAKKGTLVSTLKEVKPTVFI [L7K]"
  class: "true"
- polymer.sequence: "FAQADALKGELVSTLKEVKPTVFI [T10E]"
  class: "false"
- polymer.sequence: "FAQADALKGTLVSTLKEVKYTVFI [P20Y]"
  class: "true"
- polymer.sequence: "FAQADALKGTLVSTLKEVKFTVFI [P20F]"
  class: "true"
- polymer.sequence: "FAQADALKGTLVSTLKEVMPTVFI [K19M]"
  class: "true"
- polymer.sequence: "FAQATALKGTLVSTLKEVKPTVFI [D5T]"
  class: "true"
- polymer.sequence: "FAQADALKGTLVSTLKEVKPIVFI [T21I]"
  class: "true"
- polymer.sequence: "FAQADALKATLVSTLKEVKPTVFI [G9A]"
  class: "true"
- polymer.sequence: "FAQADALKGHLVSTLKEVKPTVFI [T10H]"
  class: "true"
- polymer.sequence: "FAQADALKGTLVSTLKEVHPTVFI [K19H]"
  class: "false"
- polymer.sequence: "FAQADALKGTLVSTLKEAKPTVFI [V18A]"
  class: "true"
- polymer.sequence: "FAQADALKGTLVSTLKEVKPTVFN [I24N]"
  class: "true"
- polymer.sequence: "FRQADALKGTLVSTLKEVKPTVFI [A2R]"
  class: "false"
- polymer.sequence: "FAQFDALKGTLVSTLKEVKPTVFI [A4F]"
  class: "true"
- polymer.sequence: "FAQADALKGTLVSTLQEVKPTVFI [K16Q]"
  class: "false"
- polymer.sequence: "FAQADALKGTLVSTLKVVKPTVFI [E17V]"
  class: "true"
- polymer.sequence: "FAQADALKGTLVSTLKEVEPTVFI [K19E]"
  class: "false"
- polymer.sequence: "FAMADALKGTLVSTLKEVKPTVFI [Q3M]"
  class: "true"
- polymer.sequence: "FAQADALKGTLVSTLKEVKPEVFI [T21E]"
  class: "false"
- polymer.sequence: "FAQADALKGTLVSTLKELKPTVFI [V18L]"
  class: "false"
- polymer.sequence: "VAQADALKGTLVSTLKEVKPTVFI [F1V]"
  class: "false"
- polymer.sequence: "KAQADALKGTLVSTLKEVKPTVFI [F1K]"
  class: "true"
- polymer.sequence: "FAQADAHKGTLVSTLKEVKPTVFI [L7H]"
  class: "true"
- polymer.sequence: "FAQADALKGRLVSTLKEVKPTVFI [T10R]"
  class: "true"
- polymer.sequence: "FAQADALKGTEVSTLKEVKPTVFI [L11E]"
  class: "true"
- polymer.sequence: "FAQADALKGTLVSTLTEVKPTVFI [K16T]"
  class: "true"
- polymer.sequence: "FFQADALKGTLVSTLKEVKPTVFI [A2F]"
  class: "true"
- polymer.sequence: "FAQADALKGTLVSTLKEVKGTVFI [P20G]"
  class: "true"
- polymer.sequence: "FAQADALKGSLVSTLKEVKPTVFI [T10S]"
  class: "false"
- polymer.sequence: "FAYADALKGTLVSTLKEVKPTVFI [Q3Y]"
  class: "false"
- polymer.sequence: "FAQADALMGTLVSTLKEVKPTVFI [K8M]"
  class: "false"
- polymer.sequence: "FAQADALKGTLVKTLKEVKPTVFI [S13K]"
  class: "true"
- polymer.sequence: "FAQADALKGTLVSTLKEVKPTVMI [F23M]"
  class: "false"
- polymer.sequence: "FAQADALKGTLVSTLKEVKPTVPI [F23P]"
  class: "true"
- polymer.sequence: "FAQADALKGTLVSTLKPVKPTVFI [E17P]"
  class: "false"
- polymer.sequence: "FAQADALKGTLVSTLKSVKPTVFI [E17S]"
  class: "false"
- polymer.sequence: "FAQADALQGTLVSTLKEVKPTVFI [K8Q]"
  class: "true"
- polymer.sequence: "FAQADALKGTLVSTLKNVKPTVFI [E17N]"
  class: "true"
- polymer.sequence: "FAQADALKGTLVSDLKEVKPTVFI [T14D]"
  class: "false"
- polymer.sequence: "FAQADALKGTLVSTLPEVKPTVFI [K16P]"
  class: "true"
- polymer.sequence: "FAQADASKGTLVSTLKEVKPTVFI [L7S]"
  class: "false"
- polymer.sequence: "FAQADALAGTLVSTLKEVKPTVFI [K8A]"
  class: "true"
- polymer.sequence: "FAQADALKGTLVSTLKEVKPTVTI [F23T]"
  class: "false"
- polymer.sequence: "FAQADALKGTSVSTLKEVKPTVFI [L11S]"
  class: "false"
- polymer.sequence: "FGQADALKGTLVSTLKEVKPTVFI [A2G]"
  class: "true"
- polymer.sequence: "FAQADALKGTAVSTLKEVKPTVFI [L11A]"
  class: "false"
